Assay: qHTS assay for small molecule agonists of the antioxidant response element (ARE) signaling pathway (AID 743202)
Conditions: HepG2 ARE-bla reporter, beta-lactamase FRET, 16 h; series mostly up to 73.3 µM
Records with an inconclusive call do not appear. Activity calls are given as the source filed them. Calls come from the whole dose curve; as a rule, active = well fitted activation curve with a large enough effect in the signal ratio in the repeat runs (not every such curve was filed as active); inconclusive = weak or mixed curves, or effect the other way; inactive = no such curve, though single readings can be large or run the other way; the % refers to the signal ratio.
Possible outcomes: Yes for active, No for inactive

>  <Compound>
Cc1ncsc1CCO

>  <Assigned label>
No

$$$$
>  <Compound>
O=C(O)Cn1c(C(=O)Nc2nc(-c3ccccc3Cl)cs2)cc2ccccc21

>  <Assigned label>
Yes

$$$$
>  <Compound>
Cc1ccc(C)o1

>  <Assigned label>
No

$$$$
>  <Compound>
CC1=CC(=O)/C(=C(/C)O)C(=O)O1

>  <Assigned label>
No

$$$$
>  <Compound>
N[C@H]1C(O)O[C@H](CO)[C@H](O)[C@@H]1O (some centres not stated)

>  <Assigned label>
No

$$$$
>  <Compound>
CN1CCC(=C2c3ccccc3C=Cc3ccccc32)CC1

>  <Assigned label>
No

$$$$
>  <Compound>
Cn1c(=O)c2c(ncn2CC(O)CO)n(C)c1=O (configuration not stated)

>  <Assigned label>
No

$$$$

# credit: PubChem BioAssay (Tox21)
